Reference source: ChEMBL document CHEMBL4513216

This section presents compounds with their documented cytotoxicity at 10 µM values.
# METHOD_DESCRIPTION: Toxicity liver stage against HepG2, at 10uM
# Assay type: cell-based
# Parameters: test concentration 10 uM, cell line HepG2-A16-CD81EGFP
# CONDITION_SUMMARY: human, HepG2-A16-CD81EGFP cells; read-out: INHIBITION
Note: a bare number is incomplete; add the unit.

Please review the following examples before continuing.
1) CN1CCN(CCOc2ccc(NC(=O)c3ccncc3)cc2)CC1	-5.18%
2) CC(C)(C)Oc1ccncc1NCc1cscn1	15.7%

Field cytotoxicity at 10 µM (entry "Cc1ncccc1NC(=O)[C@@H]1CC[C@@H]2[C@@H](CCN2Cc2cnn(C)c2)O1" ) reads -0.335%

Field cytotoxicity at 10 µM (entry "CCS(=O)(=O)Nc1ccc2[nH]c(C3CCC3)nc2c1" ) reads -13.2%

Field cytotoxicity at 10 µM (entry "COCCN1CCC(c2nc3ccc(-c4ccccc4)cn3n2)CC1" ) reads -8.84%

Field cytotoxicity at 10 µM (entry "CCS(=O)(=O)N(C)C1CCN(C(=O)c2ccc(C)c(C)c2)CC1" ) reads -2.76%
